assay_name: Spectrophotometric titration of TLZ
Type: physicochemical
recorded_conditions: pH 9
measured_attribute: pKa
Answer with a bare number; do not write a unit.

Entry under review: "Cn1ncnc1[C@H]1c2n[nH]c(=O)c3cc(F)cc(c23)N[C@@H]1c1ccc(F)cc1" . Reported pKa?
11.9
